Tg(° C.) values, listed per item
# MEASUREMENT_DESCRIPTION: Glass transition temperature (Tg) of derivatized carbohydrates, by DSC
# Assay type: physicochemical
# CONDITION_LABEL: derivatized carbohydrate alone, Tables 1-4
MEASUREMENT_TYPE: Tg(° C.)

- COMPOUND: "CC(=O)OCC1OC(OC2C(COC(C)=O)OC(OC(C)=O)C(OC(C)=O)C2OC(C)=O)C(OC(C)=O)C(OC(C)=O)C1OC(C)=O (stereo not drawn) [β-Cellobiose octaacetate, reference compound]"
  ASSAY_RESULT: "53 °C"
- COMPOUND: "CCO[C@@H]1O[C@H](COC(C)=O)[C@@H](O[C@@H]2O[C@H](COC(C)=O)[C@@H](OC(C)=O)[C@H](OC(C)=O)[C@H]2OC(C)=O)[C@H](OC(C)=O)[C@H]1OC(C)=O [β-Cellobiose ethyl heptaacetate]"
  ASSAY_RESULT: "52 °C"
- COMPOUND: "CC(=O)OCC1OC(OC2OC(COC(C)=O)C(OC(C)=O)C(OC(C)=O)C2OC(C)=O)C(OC(C)=O)C(OC(C)=O)C1OC(C)=O (centres unmarked) [Trehalose octaacetate, reference compound]"
  ASSAY_RESULT: "55 °C"
- COMPOUND: "CC(=O)OC[C@H]1O[C@@H](O[C@H]2[C@H](OC(C)=O)[C@@H](OC(C)=O)[C@H](OC(=O)C(C)C)O[C@@H]2COC(C)=O)[C@H](OC(C)=O)[C@@H](OC(C)=O)[C@H]1OC(C)=O [β-Lactose isobutyrate heptaacetate]"
  ASSAY_RESULT: "60 °C"
- COMPOUND: "CC(C)C(=O)OCC1O[C@@H](O[C@H]2OC(COC(=O)C(C)C)[C@@H](OC(=O)C(C)C)[C@H](OC(=O)C(C)C)C2OC(=O)C(C)C)C(OC(=O)C(C)C)C(OC(=O)C(C)C)[C@H]1OC(=O)C(C)C (some centres unmarked) [Trehalose octaisobutyrate]"
  ASSAY_RESULT: "7 °C"
